The origin of these recorded values is patent US8481501B2.

- ASSAY: Metabolic stability in human liver pooled S9
- RECORDED_CONDITIONS: human, s9, pH 7.4
Cut-off 4 h on half-life at 0.1 mM, inclusive. At or above means t; below means f.

MOLECULE: CN1CCC23c4c5ccc(O)c4OC2C(NC(=O)c2ccc(Cl)c(Cl)c2)C=CC3C1C5 (stereo not drawn) [13g, 6β-(3′,4′-Dichloro)benzamidomorphine]
CAT: f
--
MOLECULE: CC(=O)OC[C@H]1OC(SC2C=CC3C4Cc5ccc(O)c6c5C3(CCN4C)C2O6)[C@H](OC(C)=O)[C@@H](OC(C)=O)[C@@H]1OC(C)=O (some centres unmarked) [3d]
CAT: f
--
MOLECULE: CN1CCC23c4c5ccc(O)c4OC2C(NC(=O)c2cccc([N+](=O)[O-])c2)C=CC3C1C5 (stereo not drawn) [13f, 6β-(3′Nitro)benzamidomorphine]
CAT: t
--
MOLECULE: COC(=O)[C@H]1OC(SC2C=CC3C4Cc5ccc(OC)c6c5C3(CCN4C)C2O6)[C@H](OC(C)=O)[C@@H](OC(C)=O)[C@@H]1OC(C)=O (some centres unmarked) [3e]
CAT: f
--
MOLECULE: C=C1CC[C@@]2(O)[C@H]3Cc4ccc(O)c5c4[C@@]2(CCN3CC2CC2)[C@H]1O5 [nalmefene, reference compound]
CAT: f

###

Below: a set of entries, each annotated with reported Emax.
- TARGET_OF_ASSAY: delta opioid receptor (Homo sapiens)
- Sequence (P41143 whole entry): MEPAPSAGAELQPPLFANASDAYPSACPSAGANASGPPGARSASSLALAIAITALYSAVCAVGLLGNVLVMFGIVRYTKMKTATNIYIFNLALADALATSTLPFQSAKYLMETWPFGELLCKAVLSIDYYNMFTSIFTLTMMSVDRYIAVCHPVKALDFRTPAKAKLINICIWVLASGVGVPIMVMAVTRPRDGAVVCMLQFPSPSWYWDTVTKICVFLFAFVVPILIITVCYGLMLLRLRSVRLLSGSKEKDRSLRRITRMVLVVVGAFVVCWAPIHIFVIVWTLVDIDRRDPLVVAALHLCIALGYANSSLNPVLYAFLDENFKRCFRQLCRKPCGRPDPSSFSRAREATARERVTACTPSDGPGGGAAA
- ASSAY: Stimulation of [35S]GTPγS binding (coupling to G proteins)
- Assay type: biochemical
- Set-up: expressed in transfected cells; host or cells: transfected cells
- RECORDED_CONDITIONS: Table 2
ENDPOINT: Emax (%)

COMPOUND: COc1ccc2c3c1OC1C(SC4O[C@H](CO)[C@@H](O)[C@H](O)[C@H]4O)C=CC4C(C2)N(C)CCC341 (stereo partly shown)
TARGET_OF_ASSAY: delta opioid receptor (Homo sapiens)
UNIT_ANNOTATION: %
ASSAY_VALUE: 27.7
//
COMPOUND: COC(=O)[C@H]1OC(SC2C=CC3C4Cc5ccc(OC)c6c5C3(CCN4C)C2O6)[C@H](OC(C)=O)[C@@H](OC(C)=O)[C@@H]1OC(C)=O (stereo partly shown)
TARGET_OF_ASSAY: delta opioid receptor (Homo sapiens)
UNIT_ANNOTATION: %
ASSAY_VALUE: 64.3
//
COMPOUND: COC(=O)c1cccc(C(=O)NC2C=CC3C4Cc5ccc(O)c6c5C3(CCN4C)C2O6)c1 (stereo not drawn) [13e, 6β-(3′-Carbomethoxy)benzamidomorphine]
TARGET_OF_ASSAY: delta opioid receptor (Homo sapiens)
UNIT_ANNOTATION: %
ASSAY_VALUE: 99.6
//
COMPOUND: CC(=O)OC[C@H]1OC(SC2C=CC3C4Cc5ccc(O)c6c5C3(CCN4C)C2O6)[C@H](OC(C)=O)[C@@H](OC(C)=O)[C@@H]1OC(C)=O (stereo partly shown)
TARGET_OF_ASSAY: delta opioid receptor (Homo sapiens)
UNIT_ANNOTATION: %
ASSAY_VALUE: 45.5
//
COMPOUND: COc1ccc2c3c1OC1C(SC4O[C@H](C(=O)O)[C@@H](O)[C@H](O)[C@H]4O)C=CC4C(C2)N(C)CCC341 (stereo partly drawn) [4c, Codeine 6β-S-glucuronide]
TARGET_OF_ASSAY: delta opioid receptor (Homo sapiens)
UNIT_ANNOTATION: %
ASSAY_VALUE: 44.2
//
COMPOUND: COc1cccc(C(=O)NC2C=CC3C4Cc5ccc(O)c6c5C3(CCN4C)C2O6)c1 (stereo not drawn) [13c, 6β-(3-Methoxy)benzamidomorphine]
TARGET_OF_ASSAY: delta opioid receptor (Homo sapiens)
UNIT_ANNOTATION: %
ASSAY_VALUE: 65.5
//
COMPOUND: CN1CCC23c4c5ccc(O)c4OC2C(NC(=O)c2cccc([N+](=O)[O-])c2)C=CC3C1C5 (stereo not drawn) [13f, 6β-(3′Nitro)benzamidomorphine]
TARGET_OF_ASSAY: delta opioid receptor (Homo sapiens)
UNIT_ANNOTATION: %
ASSAY_VALUE: 94.1
//
COMPOUND: CN1CCC23c4c5ccc(O)c4OC2C(SC2O[C@H](CO)[C@@H](O)[C@H](O)[C@H]2O)C=CC3C1C5 (stereo partly drawn) [4b, 6β-Thiomorphine-6β-S-D-glucopyranoside]
TARGET_OF_ASSAY: delta opioid receptor (Homo sapiens)
UNIT_ANNOTATION: %
ASSAY_VALUE: 51.5
//
COMPOUND: COC(=O)[C@H]1OC(CC(=O)NC2C=CC3C4Cc5ccc(O)c6c5C3(CCN4C)C2O6)[C@H](OC(C)=O)[C@@H](OC(C)=O)[C@@H]1OC(C)=O (stereo in doubt)
TARGET_OF_ASSAY: delta opioid receptor (Homo sapiens)
UNIT_ANNOTATION: %
ASSAY_VALUE: 62.4
//
COMPOUND: CN1CCC23c4c5ccc(O)c4OC2C(NC(=O)Cc2cccs2)C=CC3C1C5 (stereo not drawn) [13h, 6β-(Thiophen-2′-yl)acetamidomorphine]
TARGET_OF_ASSAY: delta opioid receptor (Homo sapiens)
UNIT_ANNOTATION: %
ASSAY_VALUE: 57.3
//
COMPOUND: CC(=O)OC[C@H]1OC(SC2C=CC3C4Cc5ccc(OC(C)=O)c6c5C3(CCN4C)C2O6)[C@H](OC(C)=O)[C@@H](OC(C)=O)[C@@H]1OC(C)=O (stereo partly shown)
TARGET_OF_ASSAY: delta opioid receptor (Homo sapiens)
UNIT_ANNOTATION: %
ASSAY_VALUE: 39.3
//
COMPOUND: CN1CCC23c4c5ccc(O)c4OC2C(NC(=O)CC2O[C@H](C(=O)O)[C@@H](O)[C@H](O)[C@H]2O)C=CC3C1C5 (stereo partly drawn) [11a, 6β-(α-Glucuronosyl)acetamidomorphine]
TARGET_OF_ASSAY: delta opioid receptor (Homo sapiens)
UNIT_ANNOTATION: %
ASSAY_VALUE: 69.8
//
COMPOUND: COc1ccc2c3c1OC1C(SC4O[C@H](COC(C)=O)[C@@H](OC(C)=O)[C@H](OC(C)=O)[C@H]4OC(C)=O)C=CC4C(C2)N(C)CCC341 (stereo partly shown)
TARGET_OF_ASSAY: delta opioid receptor (Homo sapiens)
UNIT_ANNOTATION: %
ASSAY_VALUE: 44.9
